- Test system: primary human mesenchymal stem cells (hMSCs)
- test.summary: Induction of chondrogenesis in primary human mesenchymal stem cells (nodule imaging, Rhodamine B/Nile Red)
- Assay type: cell-based
- recorded.conditions: hMSC chondrogenesis, TGF-β3 as positive control, read-out: Max. Activity as % TGF-β3 activity
Entries and their Emax
property.name: Emax (%)

- COc1cncc(-c2ccc3[nH]nc(-c4nc5c(-c6cccc(F)c6)ccnc5[nH]4)c3n2)c1 [Compound 516]: 47
- CN1CCN(c2ccnc3[nH]c(-c4n[nH]c5ccc(-c6cncc(N)c6)nc45)nc23)CC1 [Compound 227]: 47
- CN(C)c1cncc(-c2ccc3[nH]nc(-c4nc5c(-c6cccs6)ccnc5[nH]4)c3n2)c1 [Compound 343]: 57
- O=C(Cc1ccccc1)Nc1cncc(-c2ccc3[nH]nc(-c4nc5c(-c6ccncc6)ccnc5[nH]4)c3n2)c1 [Compound 122]: 63
- CC(C)CC(=O)Nc1cncc(-c2ccc3[nH]nc(-c4nc5c(-c6ccc(Cl)s6)ccnc5[nH]4)c3n2)c1 [Compound 1037]: 67
- Fc1cccc(-c2ccnc3[nH]c(-c4n[nH]c5ccc(-c6cnccn6)nc45)nc23)c1 [Compound 520]: 63
- c1cncc(-c2ccc3[nH]nc(-c4nc5cccnc5[nH]4)c3n2)c1 [Compound 256]: 74

---

- Tested on: primary human fibroblasts derived from IPF patients (LL29 cells), α-smooth muscle actin (αSMA)
- test.summary: Inhibition of the fibrotic process: TGF-β1-treated primary human fibroblasts from IPF patients, αSMA staining
- Format: cell-based
- recorded.conditions: Fibroblast, 96 h, LL29 fibroblasts from IPF patients, TGF-β1 20 ng/mL, 4 days, inhibition of fibrotic process
property.name: EC50 (µM)

* C1=C(c2ccc3[nH]nc(-c4nc5c(-c6ccc7c(c6)OCO7)ccnc5[nH]4)c3n2)CCNC1 | 6.2
* CN1CCN(c2ccnc3[nH]c(-c4n[nH]c5ccc(-c6cncnc6)nc45)nc23)CC1 | 4.36
* CC(C)Nc1cncc(-c2ccc3[nH]nc(-c4nc5c(-c6cccnc6)ccnc5[nH]4)c3n2)c1 | 1.77

---

- Tested on: IL-6 (THP-1 cells)
- test.summary: Inhibition of IL-6 in LPS-stimulated THP-1 monocytes (HTRF)
- Assay type: cell-based
- recorded.conditions: Homo sapiens, LPS 500 ng/mL, IL-6 by HTRF
property.name: EC50

- CCNCc1cncc(-c2ccc3[nH]nc(-c4nc5c(-c6ccoc6)ccnc5[nH]4)c3n2)c1: > 10 µM
- CC(C)C(=O)Nc1cncc(-c2ccc3[nH]nc(-c4nc5c(-c6cccnc6)ccnc5[nH]4)c3n2)c1: 0.984 µM
- c1csc(-c2ccnc3[nH]c(-c4n[nH]c5ccc(-c6ccncc6)nc45)nc23)c1: 1.39 µM
- O=C(Nc1cncc(-c2ccc3[nH]nc(-c4nc5c(-c6ccncc6)ccnc5[nH]4)c3n2)c1)C1CCCCC1: > 1 µM
- c1cc(N2CCCCC2)c2nc(-c3n[nH]c4ccc(-c5cncc(OCCN6CCCC6)c5)nc34)[nH]c2n1: > 10 µM
- CN(C)CCNc1cc(F)cc(-c2ccnc3[nH]c(-c4n[nH]c5ccc(-c6cncc(OCc7ccccc7)c6)nc45)nc23)c1: 4.77 µM
- COc1cccc(-c2ccnc3[nH]c(-c4n[nH]c5ccc(-c6cncc(OC7CCNCC7)c6)nc45)nc23)c1: > 10 µM
- C1=C(c2ccc3[nH]nc(-c4nc5c(-c6ccc7c(c6)OCO7)ccnc5[nH]4)c3n2)CCNC1: > 10 µM
- c1cncc(-c2ccc3[nH]nc(-c4nc5cccnc5[nH]4)c3n2)c1: > 10 µM
- CN(C)CCNc1cc(F)cc(-c2ccnc3[nH]c(-c4n[nH]c5ccc(-c6cncc(CNCC7CCCC7)c6)nc45)nc23)c1: 2.62 µM
- COc1cncc(-c2ccc3[nH]nc(-c4nc5c(-c6ccoc6)ccnc5[nH]4)c3n2)c1: > 10 µM
- c1ccc(COc2cncc(-c3ccc4[nH]nc(-c5nc6c(-c7ccncc7)ccnc6[nH]5)c4n3)c2)cc1: > 10 µM
- CS(=O)(=O)NCc1cc(F)cc(-c2ccnc3[nH]c(-c4n[nH]c5ccc(-c6cncnc6)nc45)nc23)c1: > 10 µM
- Fc1cccc(-c2ccnc3[nH]c(-c4n[nH]c5ccc(-c6ccncc6)nc45)nc23)c1: > 10 µM
- CC(C)(C)C(=O)Nc1cncc(-c2ccc3[nH]nc(-c4nc5c(-c6ccc(Cl)s6)ccnc5[nH]4)c3n2)c1: > 10 µM
- c1cncc(-c2ccnc3[nH]c(-c4n[nH]c5ccc(-c6cncc(OC7CCCCC7)c6)nc45)nc23)c1: > 10 µM
- O=C(Nc1cncc(-c2ccc3[nH]nc(-c4nc5c(-c6ccc(Cl)s6)ccnc5[nH]4)c3n2)c1)C1CCC1: > 10 µM
- CN(C)c1cncc(-c2ccc3[nH]nc(-c4nc5c(N6CCCCC6)ccnc5[nH]4)c3n2)c1: > 10 µM
- Cc1ccc(-c2ccnc3[nH]c(-c4n[nH]c5ccc(-c6cncc(NC(=O)C(C)C)c6)nc45)nc23)s1: 0.161 µM
- Cc1cn(-c2ccnc3[nH]c(-c4n[nH]c5ccc(-c6cncc(N7CC(N)C7)n6)nc45)nc23)cn1: 0.92 µM
- O=C(Nc1cncc(-c2ccc3[nH]nc(-c4nc5c(-c6cccs6)ccnc5[nH]4)c3n2)c1)C1CC1: > 10 µM
- CN(C)CCOc1cncc(-c2ccc3[nH]nc(-c4nc5c(-c6cccs6)ccnc5[nH]4)c3n2)c1: > 10 µM
- Fc1cccc(-c2ccnc3[nH]c(-c4n[nH]c5ccc(C6=CCNCC6)nc45)nc23)c1: > 10 µM
- CC(C)C(=O)Nc1cncc(-c2ccc3[nH]nc(-c4nc5c(N6CCN(C)CC6)ccnc5[nH]4)c3n2)c1: > 10 µM
- O=C(Nc1cncc(-c2ccc3[nH]nc(-c4nc5c(-c6cccc(F)c6)ccnc5[nH]4)c3n2)c1)C1CC1: > 10 µM
- Cn1cc(-c2ccc3[nH]nc(-c4nc5c(-c6ccc7c(c6)OCO7)ccnc5[nH]4)c3n2)c(CO)n1: > 10 µM
- Cc1cn(-c2ccnc3[nH]c(-c4n[nH]c5ccc(-c6cncc(NC(=O)CC(C)C)c6)nc45)nc23)cn1: > 10 µM
- NC1CN(c2cncc(-c3ccc4[nH]nc(-c5nc6c(-c7ccc(Cl)s7)ccnc6[nH]5)c4n3)n2)C1: 1.77 µM
- Oc1cncc(-c2ccc3[nH]nc(-c4nc5c(N6CCCCC6)ccnc5[nH]4)c3n2)c1: 9.18 µM

---

- System: IL-6 (THP-1 cells)
- test.summary: Inhibition of IL-6 in LPS-stimulated THP-1 monocytes (HTRF)
- Type: cell-based
- recorded.conditions: Homo sapiens, LPS 500 ng/mL, IL-6 by HTRF
Entries and their EC50
property.name: EC50

• Oc1cncc(-c2ccc3[nH]nc(-c4nc5c(-c6cccc(F)c6)ccnc5[nH]4)c3n2)c1 = 1.54 µM
• Cc1ncc(-c2ccc3[nH]nc(-c4nc5c(-c6ccoc6)ccnc5[nH]4)c3n2)n1C = > 10 µM
• c1cc(-c2ccnc3[nH]c(-c4n[nH]c5ccc(-c6cnccn6)nc45)nc23)ccn1 = > 10 µM
• O=C(Nc1cncc(-c2ccc3[nH]nc(-c4nc5c(-c6ccc(F)cc6)ccnc5[nH]4)c3n2)c1)C1CCC1 = > 10 µM
• Cn1cc(-c2ccc3[nH]nc(-c4nc5c(-c6cc(F)cc(CNS(C)(=O)=O)c6)ccnc5[nH]4)c3n2)cn1 = > 10 µM
• Cc1ccc(-c2ccnc3[nH]c(-c4n[nH]c5ccc(-c6cncc(OC7CCCCC7)c6)nc45)nc23)s1 = 1.79 µM
• CS(=O)(=O)NCc1cc(F)cc(-c2ccnc3[nH]c(-c4n[nH]c5ccc(-c6cncc(NC(=O)CC7CCNCC7)c6)nc45)nc23)c1 = 0.036 µM
• COc1cccc(-c2ccnc3[nH]c(-c4n[nH]c5ccc(-c6cncc(O)c6)nc45)nc23)c1 = > 10 µM
• Fc1ccc(-c2ccnc3[nH]c(-c4n[nH]c5ccc(-c6cncc(CN7CCCC7)c6)nc45)nc23)cc1 = > 10 µM
• c1cnc2[nH]c(-c3n[nH]c4ccc(-c5cncc(OC6CCNCC6)c5)nc34)nc2c1 = 7.6 µM
• Clc1ccc(-c2ccnc3[nH]c(-c4n[nH]c5ccc(-c6cncc(CN7CCCC7)c6)nc45)nc23)s1 = > 10 µM
• CC(C)Nc1cncc(-c2ccc3[nH]nc(-c4nc5c(-c6cccnc6)ccnc5[nH]4)c3n2)c1 = 0.424 µM
• O=C(CC1CCNCC1)Nc1cncc(-c2ccc3[nH]nc(-c4nc5c(-c6ccsc6)ccnc5[nH]4)c3n2)c1 = > 10 µM
• c1cc(-c2ccnc3[nH]c(-c4n[nH]c5ccc(-c6cncc(OC7CCNCC7)c6)nc45)nc23)ccn1 = > 10 µM
• CN1CCN(c2ccnc3[nH]c(-c4n[nH]c5ccc(-c6cnccn6)nc45)nc23)CC1 = > 10 µM
